biological target: RSV postfusion F (postF, F deltaFP) (Respiratory syncytial virus); assay: BLI, IgG on sensor, 100 nM antigen
pKd: −log10 of the molar value.
value.kind: pKd

• ADI-41291 (antibody, V domains shown) VH: QVQLQQWGAGLLKPSETLSLTCVVYGESFSDSGYYWTWIRQPPEKGLEWIGEINHGGSTSYNPSLKSRVTISVDTSENQFSLKVTSVTGADTAVYYCARLRLGCSGGSCYSRFDYWGQGTLVTVSS VL: DIQLTQSPSSLSASVGDRVTITCRASQSINSYLNWYQQKPGKAPVLLIHAASSLQGGVPSRFSGSGSGTDFTLTISSLQPEDFATYYCQQSYNTRWTFGHGTKVDIK = 8.92
• ADI-41263 (antibody, V domains shown) VH: QVQLVQSGAEVKKPGASVKVYCKASGYTFTSHYIHWVRQAPGQGLEWMGRMNPSGGSPMYAQKFQERVTMTRDTSTSTAYMELRSLRSEDTAVYYCAMAKFYSFDYWGQGTLVTVSS VL: QSVLTQPHSVSESPGKTVTISCTRSSGSIASYFVHWYQQRPGSAPTIVIYEDNQRPSGVPDRFSGSIDSSSNSASLTISGLKTEDEADYYCQSYDSSNWVFGGGTKLTVL = 9.46
• ADI-41306 (antibody, V domains shown) VH: QVQLVESGPRLVKPSQTLSLTCTVSGGSIYRGDYDWNWIRQPPGKGLEWIGYISYTGNTHYNSSLKSRLSISADTSGTHFSLKLSSVTAADTAIYYCARDVGYGGNAAHYYYYAMDVWGQGTTVTVSS VL: ETTLTQSPATLSLSPGERATLSCRASQSVGSSLAWYQQKVGQAPRLLIYDASSRVTGIPARFSGSGSGTDFTLTISSLEPGDFAVYYCQQRSNSLTFGGGTKVEIK = 9.34
• ADI-41285 (antibody, V domains shown) VH: QVQLVQSGAEVKKPGSSVKVSCKASGGTFSYYAISWVRQAPGQGLEWMGGIIPILGTVKNAQKFQGRVTITADKITSIAYMELSSLRHEDTAVYYCARDYYDSSGYYYNGYGMDVWGQGTTVTVSS VL: QSVLIQPPSASGTPGQRVTISCSGSSSNIGSNYVYWYQQLPGTAPKLLIYRNDQRPSGVPDRFSGSKSGTSASLAISGLRSGDEADYYCAAWDDSLGGPIWVFGGGTKLTVL = 9.38
• ADI-41289 (antibody, V domains shown) VH: EVQLVQSGAEVKKPGESLKISCKGSGYSFSSFWIGWVRQMPGKGLEWMGIIYPGDSDTRYSPSFQGQVTISADQSIRTAYLQWNSLKASDTGLYYCAKGGLGDVEMATIAVWGQGTLVTVSS VL: QSVLIQPASVSGSPGQSITIPCTGTSSDVGSYNLVSWYQHHPGKAPKLIISEGSKRPLGVSNRFSGSKSGNTASLTISGLQAEDEADYYCSSYVRSRTFNYVFGTGTKLTVL = 9.05
• ADI-41264 (antibody, V domains shown) VH: EVQLVESGGGLVKPGGSLRLSCAASGFTFSNTWMSWVRQAPGKGLEWVGHIKSKTDGGTTDYAAPVKGRFTISRDDSKSILNLHLNSLKTEDSAVYYCAALPPISGWYYTPGFWGQGTLVTVSS VL: SYELTQPPSMSVSPGQTARITCFGDAVPKKYVYWYQQKSGQAPVMVIYDDRRRPSGIPERFSGSSSGARATLTISGAQVEDEADYYCYSTDGSGNPSFGGGTKLTVL = 9.32
• ADI-41241 (antibody, V domains shown) VH: QVQLVQSGAEVKKPGASVQVSCKASGYTFTGDYMHWVRQAPGQGLEWMGRINPNSGGTNYAQKFQGRVTMTRDTSISTAYMELSRLRSDDTAVYYCARAAAEYSSSSPTSYYYMDVWGKGTTVTVSS VL: EIQMTQSPSSLSASVGDRVTITCRASQNIYSFLNWYQQKPGKAPKLLIYAASSLQSGVPSRFSGSGSATDFTLTISSLQPEDFATYYCQQSYSPPQITFGQGTKVDIK = 9.03
• ADI-41316 (antibody, V domains shown) VH: QVQLVQSGGGVVQPGRSLRLSCAASGFTFNNYGMHWVRQAPGKGLEWVAVLSFDGINKYYADSARGRFTISRDNSKNTLYLQMNSLRAEDTALYYCAKDRQEYSSGWTHDACDIWGQGTMVTVSS VL: EIVMTQSPATLSVSPGERATLSCRASQNVNNNLAWYQQNPGQAPRLLIFGASTRATGIPARFSGSGSGTEFTLTISSLQSEDFAVYYCQQYNNWPRTFGQGTKLEIK = 8.98
